Reported EC50 of Phagocytosis assay, IgG4, Kappa; MCF-7 by item:
# ASSAY_SYSTEM: T1, human CD24 on cells (human, UniProt P25063 27-59)
# T1 chain (looked up): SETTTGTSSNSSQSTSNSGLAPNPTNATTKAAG
# TEST_PROTOCOL: cell-based or functional assay
Expressed in µg/mL, but write only the number.

A selection of reference data follows.
85-D5A10 (4434), IgG4, Kappa (antibody, V domains shown) VH: EVQLQQSGPELVKPGASVKISCKASGYEFTGYHMNWVKQSPEKSLEWIGEINPITSDKTFNQKFKAKATLTVDRSSSTAYMHLKSLTSDDSAVYYCARRDYGTSLDYWGQGTTLTVSS VL: DVQITQSPSYLAASPGETITIYCRASKSISKYLAWYQEKPEKTIRLLIYAGSTLQSGIPSRFRGSGSGKDFTLTVSGLEPEDFAMYYCQQHNEYPITFGAGTKLELI = 0.43
45-H1E4, IgG4, Kappa (antibody, V domains shown) VH: QIQLVQSGPELKKPGETVKISCKASGYTFTTYGMSWMKQAPGKGLKWMGWINTYSGVPAYADDFKGRFAFSLDTSASTAYLQINNLKNEDTATYFCARSGYPWSPHSYSTDYWGQGISVTVSS VL: DVLLTQTPLSLPVSLGDQASISCKSSQSIVHSNGNTYLEWYLQKPGQSPKRLIYKVSNRFSGVPDRFSGSGSGTDFTLKISRVEAEDLGVYYCFQGSHVPWTFGGGTKLEIK = 7
59-G9D7, IgG4, Kappa (antibody, V domains shown) VH: QVQLQQPGADLVKPGASVKLSCKASGYTVTTYWMHWVRQRPGRGLEWIGRIDPNSGETKYSEKFKNKATLTVDRPSSTAYMQLSSLTFEDSAVYFCAIYYYLNNFLFDYWGQGTTLTVSS VL: ENVLTQSPAIMSASPGEKVTMTCRASSSVSSSYLHWYQKKSGASPKLWIYSTSNLASGVPARFSGSGSGTSYSLTISSVEAEDAATYYCQQYSGYPLTFGAGTKLELK = 0.19
67-H2E7, IgG4, Kappa (antibody, V domains shown) VH: EVQLQQSGPELVKPGASVKISCKASGYEFTGYHMNWVKQSPEKSLEWIGEINPITSDKTFNQKFKAKATLTVDRSSTTAYMHLKSLTSEDSAVYYCARRDYDTSLDYWGQGTTLTVSS VL: DVQITQSPSYLAASPGETITIYCRASKSISKYLAWYQEKPEKTNRLLIYAGSTLQSGIPSRFRGSGSGKDFTLTVSGLEPEDFAMYYCQQHNEYPLTFGAGTKLDLK = 1.28

Per the records, this binder ( 63-B10B9, IgG4, Kappa (antibody, V domains shown) VH: EVQLQQSGPELVKPGASVKISCKASGYSFTGYYMNWVKQSPEKSLEWIGEINPITGGTTYNQKFRAKATLTVDRSSSTAYMQLKSLTSEDSAVYYCTKRDYDTSLDYWGQGTTLIVSS VL: DVQITQSPSYLAAFPGETITINCRASKSIKKYLAWYQEKPGKTNNLLIYSGSTLQSGIPSRFSGSGTGTDFTLTISSLEPEDFAMYYCQQHNEYPLTFGAGTKLELK ) has EC50 of Phagocytosis assay, IgG4, Kappa; MCF-7 equal to 17.1

Measured EC50 of Phagocytosis assay, IgG4, Kappa; MCF-7 of 74-H4C6 (4451), IgG4, Kappa (antibody, V domains shown) VH: EVQLQQSGPELVKPGASVKISCKASGYDFTGYHMNWVKQSPEKSLEWIGEINPITSDKTFNQKFKSKATLTVDRSSSTAYMYLKSLTSEDSAVYYCARRDYGTSLDYWGQGTTLTVSS VL: DVQITQSPSYLAASPGETITIYCRASKSISKYLAWYQEKPEKTNRLLIYAGSTLHSGIPSRFRGSGSGKDFTLTVSGLEPEDFAMYYCQQHNEYPITFGAGTKLELK : 0.74

Lab note: measured EC50 of Phagocytosis assay, IgG4, Kappa; MCF-7 of 62-F7E9, IgG4, Kappa (antibody, V domains shown) VH: QVQLQQPGAELVKPGASVKLSCKASGYTSTSYWLHWVKQRPGRGLEWIGRIDPNSGETKFNEKFKSQATLTVDKPSSTAYMQLNSLTSEDSAVYYCALYYYGSILFDYWGQGTTLTVSS VL: ENVLTQSPAIMSASPGEKVTMTCRTSSIISSGFLHWYQQKSGASPKLWIYSTSNLASGVPARFSGSGSGTSYSLTISSVEAEDAATYYCQQYSGHPLTFGAGTKLELK was 0.21
